# Test system: 3LL cell line
# procedure.text: Effect on the growth of 3LL cells was evaluated using an MTT assay at 72 hour incubation
# Assay type: functional, cell-based
# recorded.conditions: Mus musculus
value.kind: IC50 (µM)
Respond with the bare value in µM.

Here are 4 compounds together with their reported answers.
Cl.NCCCCNCCCNCc1ccc(F)cc1    2.3
Cl.NCCCCNCCCNCc1ccccc1    9.3
Cl.NCCCCNCc1ccccc1    604
Cl.NCCCCNCc1ccc(F)cc1    468

// moving on: another record for IC50
Please indicate IC50 recorded for Cl.NCCCCNCCCNCc1ccc(B(O)O)cc1
400

###

The following molecules are shown together with reported pIC50 values.
# target.under.test: Nucleic Acid
# procedure.text: DNA binding affinity (conc to decrease the fluorescence of the ethidium bromide-DNA complex by 50%)
# Type: nucleic-acid assay, Bos taurus
Convention used: pIC50 is expressed as -log10 of the molar concentration.

Cl.NCCCCN(CCCN)Cc1ccccc1    3.51
Cl.NCCCCNCCCNCc1ccc(B(O)O)cc1    4.43
Cl.NCCCCNCc1ccccc1    2.51
Cl.NCCCCNCCCNCc1ccc(F)cc1    3.47
Cl.NCCCCNCc1ccc(B(O)O)cc1    2.86

Please indicate pIC50 recorded for Cl.NCCCCNCCCNCc1ccccc1
3.97

Please indicate pIC50 recorded for NCCCCNCCCN
4.01

###

# System: 3LL cell line
# procedure.text: spermine levels in 3LL cells after the treatment of 50 uM of Compound
# Type: functional, cell-based
# recorded.conditions: Mus musculus
The threshold is 7. Values of Level (nM (mg of protein)-1) beneath it are tagged criterion met; values meeting or exceeding it are tagged criterion not met.

CC1(C)COB(c2ccc(CN(CCCN)CCCCN)cc2)OC1.Cl    criterion not met
Cl.NCCCCNCc1ccc(F)cc1    criterion not met
Cl.NCCCCNCc1ccc(B(O)O)cc1    criterion not met

Given Cl.NCCCCNCCCNCc1ccc(B(O)O)cc1 , is recorded Level (nM (mg of protein)-1) strictly lower than 7?
criterion not met

Given Cl.NCCCCNCc1ccccc1 , is recorded Level (nM (mg of protein)-1) strictly lower than 7?
criterion met

###

# Tested on: 3LL cell line
# procedure.text: Effect on the growth of 3LL cells by DFMO pretreatment at 48 hr incubation
# Assay type: functional, cell-based
# recorded.conditions: Mus musculus
value.kind: IC50

Here are 4 compounds together with their reported answers.
CC1(C)COB(c2ccc(CN(CCCN)CCCCN)cc2)OC1.Cl    > 10 µM
Cl.NCCCCNCCCNCc1ccccc1    11.9 µM
Cl.NCCCCNCc1ccc(B(O)O)cc1    > 50 µM
Cl.NCCCCNCc1ccccc1    > 50 µM

Please indicate IC50 recorded for Cl.NCCCCN(CCCN)Cc1ccccc1
> 100 µM

Please indicate IC50 recorded for Cl.NCCCCNCc1ccc(F)cc1
> 10 µM

Please indicate IC50 recorded for Cl.NCCCCNCCCNCc1ccc(F)cc1
0.5 µM

Please indicate IC50 recorded for Cl.NCCCCNCCCNCc1ccc(B(O)O)cc1
> 1 µM

###

# System: CHO
# procedure.text: Compound was tested for accumulation in CHO cells by HPLC at 50 uM dose
# Type: functional, Cricetulus griseus
The following molecules are shown together with reported Accumulation values.

Please indicate Accumulation recorded for Cl.NCCCCNCc1ccccc1
0.4 nM (mg of protein)-1

###

# target.under.test: Nucleic Acid
# procedure.text: DNA binding affinity (conc to decrease the fluorescence of the ethidium bromide-DNA complex by 50%)
# Format: nucleic-acid assay
value.kind: IC50 (µM)
Respond with the bare value in µM.

Fetch value of IC50 on Nucleic Acid for CC1(C)COB(c2ccc(CN(CCCN)CCCCN)cc2)OC1.Cl .
102

###

The following molecules are shown together with reported IC50 values.
# System: 3LL cell line
# procedure.text: Effect on the growth of 3LL cells was evaluated using an MTT assay at 72 hour incubation
# Format: functional, cell-based
# recorded.conditions: Mus musculus

Cl.NCCCCN(CCCN)Cc1ccccc1    > 1000 µM
CC1(C)COB(c2ccc(CN(CCCN)CCCCN)cc2)OC1.Cl    > 1000 µM

// moving on: another record for IC50
Please indicate IC50 recorded for Cl.NCCCCNCc1ccc(B(O)O)cc1
> 1000 µM

###

The following molecules are shown together with reported Accumulation values.
# Test system: CHO
# procedure.text: Compound was tested for accumulation in CHO cells by HPLC at 50 uM dose
# Assay type: functional, Cricetulus griseus

Here are 3 molecules together with their reported answers.
Cl.NCCCCNCCCNCc1ccccc1    17.58 nM (mg of protein)-1
Cl.NCCCCNCc1ccc(B(O)O)cc1    5.76 nM (mg of protein)-1
Cl.NCCCCNCc1ccc(F)cc1    0.9 nM (mg of protein)-1

// moving on: another record for Accumulation
Please indicate Accumulation recorded for Cl.NCCCCNCCCNCc1ccc(B(O)O)cc1
4.78 nM (mg of protein)-1
